Target: T1, Recombinant human PSGL-1(ECD)-hFc1 (R&D Systems, Cat. 3345-PS) (human, UniProt Q14242 42-305)
T1 construct: Bought; Gln42-Val295 counted on AAC50061; also called PSGL-1-Fc; PSGL-1-hFc1 chimera; not shown: human IgG1 Fc, Pro100-Lys330
T1 sequence: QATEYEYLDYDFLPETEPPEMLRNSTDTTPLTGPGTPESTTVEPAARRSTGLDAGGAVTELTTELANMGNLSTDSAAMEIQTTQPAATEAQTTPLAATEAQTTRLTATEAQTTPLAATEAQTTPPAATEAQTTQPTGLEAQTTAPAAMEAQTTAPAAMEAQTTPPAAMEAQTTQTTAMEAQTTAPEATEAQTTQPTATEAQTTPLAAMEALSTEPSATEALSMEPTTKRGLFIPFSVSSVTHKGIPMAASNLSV
Experiment: ELISA, plate-bound target
Value Type: EC50 (nM)
Dear colleague, please return just the value in nM, with no unit written.

18F02 (antibody, V domains shown, From mouse immunisation; only variable domains given) VH: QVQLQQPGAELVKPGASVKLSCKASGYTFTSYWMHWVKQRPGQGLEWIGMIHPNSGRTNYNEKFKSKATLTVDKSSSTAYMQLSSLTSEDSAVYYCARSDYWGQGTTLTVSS VL: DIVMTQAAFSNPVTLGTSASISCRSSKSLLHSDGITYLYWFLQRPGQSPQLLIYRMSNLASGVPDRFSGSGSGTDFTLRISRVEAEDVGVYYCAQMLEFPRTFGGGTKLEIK | 0.57
2E12 (antibody, V domains shown, Mouse hybridoma mAb; only variable domains given) VH: QVQLQQSGAELARPGASVKLSCKASGYTFTNYGLNWVKQRTGQGLEWIGEIYPRSGNTYYNEKFKGKATLTADKSSSTAYMQLSSLTSEDSAVYFCATEGAYWGQGTLVTVSA VL: DIVMTQTPLTLSVTIGQPASISCKSSQSLLHGNGKTYLNWLLQRPGQSPKLLIYLVSKLESGIPDRFSGSGSGTDFTLEISRVEAEDLGIYYCLQSTHFPRTFGGGTKLEIK | 0.6
5E12 (antibody, V domains shown, Mouse hybridoma mAb; only variable domains given) VH: EIQLQQSGAELVRPGASVKLSCTASGFNIKDDYIHWVKQRPEQGLEWIGRIDPANGNTKSAPKFQDKATITADTSSNTAYLHLSSLTSEDTAVYYCSIRFAYWGQGTLVTVSA VL: DVVMTQTPLSLSVSLGDQASISCRSSQSLVYRNGDTYLHWFLQKPGQSPKLLIYKVSNRFSGVPDRFSGSGSGTDFTLKISRVEAEDLGIYFCSQNTHVPYTFGGGTKLEIK | 0.51

Could you now consider this next binder?
Prompt line: # lookup: EC50 of 43B6 (antibody, V domains shown, Control anti-PSGL-1 mAb, recombinant; only variable domains given; also called 43B3) VH: EVQLQQSGPDLVKPGALVKISCKASGYSFTAYYIHWVKQSHGKSLEWIGRVNPNTGGTSYNPKFKGKAILNVDKSSSTAYMELRSLTSEDSAVYYCARSGSPYYRYDDWGQGTTLTVSS VL: ENVLTQSPAIMSASPGEKVTMTCRASSTVNSTYLHWFQQKSGASPKLWIYGSSNLASGVPARFSGSGSGTSYSLTISSVEAEDAATYYCQQYSGYPLTFGAGTTLELK
Response line: 0.05

Values compiled from patent US20220396632A1.
